# System: S-ADH from M. vaccae JOB-5
# Assay Explanation: S-ADH spectrophotometric assay, propane-grown M. vaccae JOB-5
# Assay type: biochemical, Mycobacterium vaccae strain JOB-5
# Test Parameters: alcohol oxidation rates, pH 7.6, 2.5 mM substrate, 0.2 mM NAD+; 2-propanol = 100; NA = no activity detected
# Procedure: Assays were performed in 2 mL quartz cuvettes and contained NAD(H) (0.2 mM), potassium phosphate buffer (25 mM), and a source of enzyme (cell-free extracts, column fractions, or purified enzyme) in a total reaction volume of 1 mL at pH 6.2 ([…]) at 30° C. […] Assays were initiated by addition of substrate (2.5 mM) and monitored over time by measuring the change in absorbance at 340 nm (∈340 of 6.22 mM^−1·cm^−1 for NADH).
Label fulfilled when Relative S-ADH Activity (%) JOB 5, alcohol oxidation < 70%; otherwise not fulfilled.

QUERY: Strictly below 70%: is that where Relative S-ADH Activity (%) JOB 5, alcohol oxidation of `CC(C)O` sits?
RESULT: not fulfilled

QUERY: Strictly below 70%: is that where Relative S-ADH Activity (%) JOB 5, alcohol oxidation of CCC(C)O (centres unmarked) sits?
RESULT: not fulfilled

QUERY: Strictly below 70%: is that where Relative S-ADH Activity (%) JOB 5, alcohol oxidation of `CCCCO` sits?
RESULT: fulfilled

QUERY: Strictly below 70%: is that where Relative S-ADH Activity (%) JOB 5, alcohol oxidation of `CCCO` sits?
RESULT: fulfilled

---

# Target System: S-ADH from T. brockii (Thermoanaerobacter brockii)
# Sequence (P14941 whole entry): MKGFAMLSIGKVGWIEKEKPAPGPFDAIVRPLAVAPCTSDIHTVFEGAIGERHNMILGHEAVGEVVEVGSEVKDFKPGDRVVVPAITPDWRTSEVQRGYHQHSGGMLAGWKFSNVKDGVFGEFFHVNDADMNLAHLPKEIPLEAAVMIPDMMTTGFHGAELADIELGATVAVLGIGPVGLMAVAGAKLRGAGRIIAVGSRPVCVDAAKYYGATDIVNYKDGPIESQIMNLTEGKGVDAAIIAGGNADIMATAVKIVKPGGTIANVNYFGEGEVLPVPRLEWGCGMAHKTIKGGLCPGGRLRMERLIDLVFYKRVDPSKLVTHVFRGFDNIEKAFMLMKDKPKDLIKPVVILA
# Assay Explanation: S-ADH spectrophotometric assay, T. brockii S-ADH
# Type: biochemical, Thermoanaerobium brockii
# Test Parameters: ketone reduction rates, pH 6.2, 2.5 mM substrate, 0.2 mM NADPH; acetone = 100
Quantity Measured: Relative S-ADH Activity (%) T. brockii, ketone reduction
Remember to follow the number with its unit.

QUERY: I would be grateful if you could share the reported Relative S-ADH Activity (%) T. brockii, ketone reduction for `CCCC(C)=O` .
RESULT: 59%

QUERY: I would be grateful if you could share the reported Relative S-ADH Activity (%) T. brockii, ketone reduction for `CCC(=O)CC` .
RESULT: 49%

QUERY: I would be grateful if you could share the reported Relative S-ADH Activity (%) T. brockii, ketone reduction for `CCC(C)=O` .
RESULT: 67%

QUERY: I would be grateful if you could share the reported Relative S-ADH Activity (%) T. brockii, ketone reduction for `CC(C)=O` .
RESULT: 100%

---

# Test system: S-ADH from X. autotrophicus strain Py2
# Assay Explanation: Secondary alcohol dehydrogenase NADH oxidation spectrophotometric assay
# Format: biochemical, Xanthobacter autotrophicus strain Py2
# Test Parameters: alcohol oxidation rates, pH 7.6, 2.5 mM substrate, 0.2 mM NAD+; 2-propanol = 100; NA = no activity detected
Answer each item with its documented Relative S-ADH Activity (%) X. Py2, alcohol oxidation.
# unit: % | format: bare number

QUERY: I would be grateful if you could share the reported Relative S-ADH Activity (%) X. Py2, alcohol oxidation for CCC(C)O (stereo not shown) .
RESULT: 88

QUERY: I would be grateful if you could share the reported Relative S-ADH Activity (%) X. Py2, alcohol oxidation for `CCCCO` .
RESULT: 7

QUERY: I would be grateful if you could share the reported Relative S-ADH Activity (%) X. Py2, alcohol oxidation for `CC(C)O` .
RESULT: 100

QUERY: I would be grateful if you could share the reported Relative S-ADH Activity (%) X. Py2, alcohol oxidation for CCCC(C)O (stereo not shown) .
RESULT: 157

---

Answer each item with its documented Relative S-ADH Activity (%) C. boidinii, alcohol oxidation.
# Tested on: S-ADH from C. boidinii
# Assay Explanation: S-ADH spectrophotometric assay, C. boidinii S-ADH
# Format: biochemical, Candida boidinii
# Test Parameters: alcohol oxidation rates, pH 7.6, 5 mM substrate, 0.2 mM NAD+; 2-propanol = 100
# unit: % | format: bare number

QUERY: I would be grateful if you could share the reported Relative S-ADH Activity (%) C. boidinii, alcohol oxidation for CCCO [1-Propanol] .
RESULT: 9

QUERY: I would be grateful if you could share the reported Relative S-ADH Activity (%) C. boidinii, alcohol oxidation for CCO [Ethanol] .
RESULT: 9

QUERY: I would be grateful if you could share the reported Relative S-ADH Activity (%) C. boidinii, alcohol oxidation for CCCC(C)O (stereo not shown) [2-Pentanol] .
RESULT: 22

QUERY: I would be grateful if you could share the reported Relative S-ADH Activity (%) C. boidinii, alcohol oxidation for CC(C)O [2-Propanol] .
RESULT: 100

QUERY: I would be grateful if you could share the reported Relative S-ADH Activity (%) C. boidinii, alcohol oxidation for CCCCO [1-Butanol] .
RESULT: 6

QUERY: I would be grateful if you could share the reported Relative S-ADH Activity (%) C. boidinii, alcohol oxidation for CCCCCO [1-Pentanol] .
RESULT: 8

QUERY: I would be grateful if you could share the reported Relative S-ADH Activity (%) C. boidinii, alcohol oxidation for CCC(C)O (stereo not shown) [2-Butanol] .
RESULT: 100

---

# System: S-ADH from X. autotrophicus strain Py2
# Assay Explanation: Secondary alcohol dehydrogenase NADH oxidation spectrophotometric assay
# Format: biochemical, Xanthobacter autotrophicus strain Py2
# Test Parameters: ketone reduction rates, pH 6.2, 2.5 mM substrate, 0.2 mM NADH; acetone = 100
Answer each item with its documented Relative S-ADH Activity (%) X. Py2, ketone reduction.
# unit: % | format: bare number

QUERY: // fetch S-ADH from X. autotrophicus strain Py2 Relative S-ADH Activity (%) X. Py2, ketone reduction for `CCC(C)=O`
RESULT: 170

QUERY: // fetch S-ADH from X. autotrophicus strain Py2 Relative S-ADH Activity (%) X. Py2, ketone reduction for `CCC(=O)CC`
RESULT: 180

QUERY: // fetch S-ADH from X. autotrophicus strain Py2 Relative S-ADH Activity (%) X. Py2, ketone reduction for `CCCC(C)=O`
RESULT: 198

QUERY: // fetch S-ADH from X. autotrophicus strain Py2 Relative S-ADH Activity (%) X. Py2, ketone reduction for `CC(C)=O`
RESULT: 100

---

# Test system: S-ADH from strain IP-1
# Assay Explanation: S-ADH spectrophotometric assay, partially purified S-ADH of isolate IP-1
# Type: biochemical, isopropanol-grown bacterial strain TDCC IP-1
# Test Parameters: alcohol oxidation rates, pH 7.6, 2.5 mM substrate, 0.2 mM NAD+; 2-propanol = 100; NA = no activity detected
We use 20% as the dividing line for Relative S-ADH Activity (%) IP-1, alcohol oxidation: on or above the line is True, below is False.

QUERY: Entry CCC(C)O (stereo not drawn) [2-Butanol] : is its Relative S-ADH Activity (%) IP-1, alcohol oxidation no less than 20%?
RESULT: True

QUERY: Entry CCCCO [1-Butanol] : is its Relative S-ADH Activity (%) IP-1, alcohol oxidation no less than 20%?
RESULT: False

QUERY: Entry CCCO [1-Propanol] : is its Relative S-ADH Activity (%) IP-1, alcohol oxidation no less than 20%?
RESULT: False

QUERY: Entry CCCC(C)O (stereo not drawn) [2-Pentanol] : is its Relative S-ADH Activity (%) IP-1, alcohol oxidation no less than 20%?
RESULT: False

QUERY: Entry CCO [Ethanol] : is its Relative S-ADH Activity (%) IP-1, alcohol oxidation no less than 20%?
RESULT: False

QUERY: Entry CC(C)O [2-Propanol] : is its Relative S-ADH Activity (%) IP-1, alcohol oxidation no less than 20%?
RESULT: True

---

# System: S-ADH from M. vaccae JOB-5
# Assay Explanation: S-ADH spectrophotometric assay, propane-grown M. vaccae JOB-5
# Format: biochemical, Mycobacterium vaccae strain JOB-5
# Test Parameters: ketone reduction rates, pH 6.2, 2.5 mM substrate, 0.2 mM NADH; acetone = 100
Quantity Measured: Relative S-ADH Activity (%) JOB 5, ketone reduction
# unit: % | format: bare number

QUERY: I would be grateful if you could share the reported Relative S-ADH Activity (%) JOB 5, ketone reduction for `CCCC(C)=O` .
RESULT: 185

QUERY: I would be grateful if you could share the reported Relative S-ADH Activity (%) JOB 5, ketone reduction for `CCC(C)=O` .
RESULT: 213

QUERY: I would be grateful if you could share the reported Relative S-ADH Activity (%) JOB 5, ketone reduction for `CCC(=O)CC` .
RESULT: 26

QUERY: I would be grateful if you could share the reported Relative S-ADH Activity (%) JOB 5, ketone reduction for `CC(C)=O` .
RESULT: 100

---

# Test system: S-ADH from X. autotrophicus strain Py2
# Assay Explanation: Secondary alcohol dehydrogenase NADH oxidation spectrophotometric assay
# Type: biochemical, Xanthobacter autotrophicus strain Py2
# Test Parameters: at pH 7.8
Quantity Measured: specific activity, alcohol oxidation

compound="CCCCCO [1-Pentanol]" assay_value="No activity"
compound="CCCO [1-Propanol]" assay_value="No activity"
compound="CCO [Ethanol]" assay_value="No activity"
